System: LNCaP cells
Test: LNCaP cell viability assay (MTS)
Assay type: cell-based
Conditions: Homo sapiens, LNCaP, 48 h, LNCaP cell line
Experimental: LNCaP cell line was used for the cell viability assay. LNCaP cells were plated in 96-well plates at a density of 5000 cells per well. […] Relative cell numbers were analyzed after 48 hours using 3-(4,5-dimethylthiazol-2-yl)-5-(3-carboxymethoxyphenyl)-2-(4-sulfophenyl)-2H-tetrazolium (MTS) assay (Promega) according to the manufacturer's instructions. The cell viability data was analyzed with GraphPad Prism software. […]
So basically: is GI50 under 30 µM? Then YES. Not under? Then NO.

{"columns": ["compound", "discrete.label"],
 "data": [
  ["CCCOC1CCN(CC(NS(=O)(=O)c2ccc(OC(F)(F)F)cc2)c2ccc(Cl)c(Cl)c2)CC1 (centres unmarked)", "NO"],
  ["CCOC(=O)CC(NS(=O)(=O)c1ccc(OC(F)(F)F)cc1)c1cccc(Br)c1 (centres unmarked)", "NO"],
  ["CCOc1ccc(Cl)cc1CCNS(=O)(=O)c1ccc(OC(F)(F)F)cc1", "NO"],
  ["CN(C)CC(NS(=O)(=O)c1ccc(OC(F)(F)F)cc1)c1ccc(Cl)c(F)c1 (centres unmarked)", "YES"],
  ["O=S(=O)(NCC1(c2ccc(Br)cc2Cl)CC1)c1ccc(OC(F)(F)F)cc1", "YES"],
  ["O=S(=O)(N[C@H](Cc1cc(F)c(F)cc1F)CC(F)(F)F)c1ccc(OC(F)(F)F)cc1", "YES"],
  ["CC(Cc1c(Cl)cccc1Cl)NS(=O)(=O)c1ccc(OC(F)(F)F)cc1 (centres unmarked)", "NO"],
  ["COC(=O)C(C)C(NS(=O)(=O)c1ccc(OC(F)(F)F)cc1)c1ccccc1 (centres unmarked)", "NO"],
  ["CN(C)CC(NS(=O)(=O)c1ccc(Oc2ccc(F)cc2)cc1)c1ccc(Cl)c(Cl)c1 (centres unmarked)", "YES"],
  ["CC(C)c1ccc(S(=O)(=O)NC(CN(C)C)c2ccc(Cl)c(Cl)c2)cc1 (centres unmarked)", "YES"],
  ["CN(C)C(=O)[C@H](Cc1ccc(Cl)c(Cl)c1)NS(=O)(=O)c1ccc(OC(F)(F)F)cc1", "NO"],
  ["Cc1cccc(C(CN(C)C)NS(=O)(=O)c2ccc(OC(F)(F)F)cc2)c1 (centres unmarked)", "NO"],
  ["O=S(=O)(N[C@@H](CO)c1ccc(Cl)c(Cl)c1)c1ccc(OC(F)(F)F)cc1", "NO"],
  ["CC(C)(C)OC(=O)NC[C@H](NS(=O)(=O)c1ccc(OC(F)(F)F)cc1)c1ccccc1", "NO"],
  ["O=S(=O)(NCCNS(=O)(=O)c1ccc(Cl)cc1F)c1ccc(OC(F)(F)F)cc1", "NO"],
  ["O=S(=O)(N[C@H](CO)c1ccc(Cl)c(Cl)c1)c1ccc(OC(F)(F)F)cc1", "NO"]
]}
